- assay: In vitro UV protection performance (SPF in vitro, UVAPF, Critical Wavelength) by the Colipa UVA in vitro Method on PMMA plates
- Assay type: physicochemical
- condition: PMMA plate; after UV exposure; 90% of the absorbance integral 290 to 400 nm; >= 370 nm = broad-spectrum
experimentalEndpoint: Critical Wavelength λc value (nm)

{"compound": "CC1(C)CC2=C(SCC(C(=O)O)N2)/C(=N/c2ccc(C(=O)NC(C)(C)C)cc2)C1 (stereo not shown) [IE1]", "Critical Wavelength λc value / nm": 391}
{"compound": "CC1(C)CC2=C(SCC(C(=O)O)N2)/C(=N/c2ccc(F)cc2)C1 (stereo not shown) [IE4]", "Critical Wavelength λc value / nm": 390}
{"compound": "COc1ccc(/N=C2\\CC(C)(C)CC3=C2SCC(C(=O)O)N3)cc1OC (stereo not shown) [IF1]", "Critical Wavelength λc value / nm": 390}
{"compound": "COc1ccc(/N=C2\\CC(C)(C)CC3=C2SCC(C(=O)O)N3)cc1 (stereo not shown) [IA1]", "Critical Wavelength λc value / nm": 390}
